Cited source: patent US9981940B2

assay_protocol: log P by HPLC (OECD Guideline 117), method [b] neutral range
Type: physicochemical
assay_setup: HPLC, method [b] neutral range
value_kind: logP[b]

Some compounds with recorded logP[b]:
- compound: "O=c1n(-c2cc(SCC(F)(F)F)c(Cl)cc2F)nc(OCC(F)(F)F)n1C1CC1"
  logP[b]: 3.89
- compound: "COc1cc(F)c(-n2nc(OCC(C)(C)C)n(C3CC3)c2=O)cc1SCC(F)(F)F"
  logP[b]: 4.32
- compound: "Cc1cc(F)c(-n2nc(OC(C)(C)C)n(C)c2=O)cc1SCC(F)(F)F"
  logP[b]: 3.88
- compound: "Cn1c(C(F)(F)F)nn(-c2cc(SCC(F)(F)F)c(C#N)cc2F)c1=O"
  logP[b]: 3.08
- compound: "Cc1cc(F)c(-n2ncn(C3CC3)c2=O)cc1SCC(F)(F)F"
  logP[b]: 2.59

P. Cc1ccc(-n2nc(OCC(C)(C)C)n(C)c2=O)cc1[S+]([O-])CC(F)(F)F (stereo not drawn)
Q. Cc1cc(F)c(-n2nc(NC(C)C)n(N)c2=O)cc1[S+]([O-])CC(F)(F)F (stereo not drawn)
-- ask Which has the higher logP[b], P or Q ? Select an item and report its label.
-- reply P
(P: 3.57, Q: 1.83)
